- Tested on: pigweed (Amaranthus retroflexus)
- PROTOCOL: Test C preemergence
- Type: in vivo
- STUDY CONDITIONS: 250 g ai/ha, scale 0 to 100, 0 no effect, 100 complete control
QUANTITY NAME: Plant response rating, Pigweed

MOLECULE | EXPERIMENTAL SYSTEM | QUANTITY NAME | TEST VALUE
CN1C[C@H](c2ccc(F)c(F)c2)[C@@H](C(=O)Nc2cccc(F)c2F)C1=O | pigweed (Amaranthus retroflexus) | Plant response rating, Pigweed | 75
CN1CC(c2cccc(C(F)(F)F)c2)C(C)(C(=O)Nc2ccccc2F)C1=O (centres unmarked) | pigweed (Amaranthus retroflexus) | Plant response rating, Pigweed | 40
CN1CC(c2cccc(C(F)(F)F)c2)C(C(=O)Nc2ccccc2S(C)(=O)=O)C1=O (centres unmarked) | pigweed (Amaranthus retroflexus) | Plant response rating, Pigweed | 85
CN1CC(c2ccc(C(F)(F)F)cc2)C(C(=S)Nc2ccccc2F)C1=O (centres unmarked) | pigweed (Amaranthus retroflexus) | Plant response rating, Pigweed | 80
CN1CC(c2cccc(OC(F)(F)C(F)F)c2)C(C(=O)Nc2ccc(F)cc2F)C1=O (centres unmarked) | pigweed (Amaranthus retroflexus) | Plant response rating, Pigweed | 90
